target: Platelet glycoprotein 4 (Rattus norvegicus, UniProt Q07969); assay: Displacement of photoactivatable [125I]-Tyr-Bpa-Ala-Hexarelin from CD36 in Sprague-Dawley rat cardiac membranes incubated for 60 mins by densitometry
Sequence (Q07969 whole entry): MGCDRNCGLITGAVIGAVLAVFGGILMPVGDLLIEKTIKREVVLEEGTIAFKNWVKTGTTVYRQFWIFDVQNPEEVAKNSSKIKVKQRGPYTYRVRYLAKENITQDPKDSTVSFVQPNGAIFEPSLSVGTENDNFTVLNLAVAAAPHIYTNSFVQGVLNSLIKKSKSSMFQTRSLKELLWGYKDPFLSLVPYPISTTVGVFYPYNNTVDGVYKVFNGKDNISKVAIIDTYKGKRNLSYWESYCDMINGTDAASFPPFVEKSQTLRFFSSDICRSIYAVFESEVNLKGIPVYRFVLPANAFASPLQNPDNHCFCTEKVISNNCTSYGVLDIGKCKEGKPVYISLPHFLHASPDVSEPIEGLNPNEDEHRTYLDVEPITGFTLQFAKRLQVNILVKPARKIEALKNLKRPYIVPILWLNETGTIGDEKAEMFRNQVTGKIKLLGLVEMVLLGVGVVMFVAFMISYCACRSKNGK
Starred links: 1 amine or outer side, 2 acyl side, 3 side chain; linkers in the order of their positions; H or OH if unused. Non-standard residues stand in square brackets, D forms with d. Residues, ends and D or L forms follow the SMILES beside them. azaPhe = O=C(N(Cc1ccccc1)N[*:1])[*:2]; azaGly = NNC(=O)O
In this section, each of the molecules is paired with its reported IC50.

Study these solved cases before continuing.
C[C@@H](NC(=O)[C@H](Cc1c[nH]c2ccccc12)NC(=O)NNC(=O)[C@@H](Cc1c[nH]c2ccccc12)NC(=O)[C@@H](N)Cc1cnc[nH]1)C(=O)N[C@@H](CCCCN)C(N)=O (H-H[dW][azaGly]W[dA]K-NH2): > 10 µM
C[C@H](N)C(=O)NN(Cc1ccccc1)C(=O)N[C@@H](C)C(=O)N[C@@H](Cc1c[nH]c2ccccc12)C(=O)N[C@H](Cc1ccccc1)C(=O)N[C@@H](CCCCN)C(N)=O (H-A[azaPhe]AW[dF]K-NH2): 42.7 µM
C[C@H](NC(=O)[C@H](C)NC(=O)N(Cc1ccc(O)cc1)NC(=O)C(N)Cc1cnc[nH]1)C(=O)N[C@H](Cc1ccccc1)C(=O)N[C@@H](CCCCN)C(N)=O (some centres undefined): > 10 µM
C[C@@H](NC(=O)[C@@H](N)Cc1cnc[nH]1)C(=O)NNC(=O)N[C@@H](Cc1c[nH]c2ccccc12)C(=O)N[C@H](Cc1ccccc1)C(=O)N[C@@H](CCCCN)C(N)=O (H-H[dA][azaGly]W[dF]K-NH2): > 10 µM

Problem: Give the reported IC50 for this molecule. CC(C)CN(NC(=O)[C@@H](Cc1c[nH]c2ccccc12)NC(=O)[C@@H](N)Cc1cnc[nH]1)C(=O)N[C@@H](Cc1c[nH]c2ccccc12)C(N)=O
Solution: > 10 µM

Problem: Give reported IC50 value for C[C@H](NC(=O)N(Cc1ccccc1)NC(=O)[C@@H](N)Cc1cnc[nH]1)C(=O)N[C@@H](Cc1c[nH]c2ccccc12)C(=O)N[C@H](C)C(=O)N[C@@H](CCCCN)C(N)=O (H-H[azaPhe]AW[dA]K-NH2)
Solution: > 10 µM

----------
biological target: Platelet glycoprotein 4 (Rattus norvegicus); test: Displacement of photoactivatable [125I]-Tyr-Bpa-Ala-Hexarelin from CD36 in Sprague-Dawley rat cardiac membranes incubated for 60 mins by densitometry
pIC50: −log10 of the molar value. Starred links: 1 amine or outer side, 2 acyl side, 3 side chain; linkers in the order of their positions; H or OH if unused. Non-standard residues stand in square brackets, D forms with d. Residues, ends and D or L forms follow the SMILES beside them. Haic = O=C1[C@@H](N[*:1])CCc2cccc3c2N1[C@H](C(=O)[*:2])C3; dTrp(2-Me) = Cc1[nH]c2ccccc2c1C[C@@H](N)C(=O)O; azaTyr = O=C(N(Cc1ccc(O)cc1)N[*:1])[*:2]; azaGly = NNC(=O)O
OBSERVATION_TYPE: pIC50

C[C@H](NC(=O)[C@@H](Cc1ccccc1)NC(=O)[C@H](Cc1c[nH]c2ccccc12)NC(=O)[C@H](C)NC(=O)N(Cc1ccc(O)cc1)NC(=O)[C@@H](N)Cc1cnc[nH]1)C(N)=O (H-H[azaTyr]AW[dF]A-NH2): < 5.00

Problem: Report pIC50, nothing else, for this compound: Cc1[nH]c2ccccc2c1C[C@@H](NC(=O)[C@@H]1Cc2cccc3c2N1C(=O)[C@@H](N)CC3)C(=O)N[C@H](CCCCN)C(=O)N[C@@H](Cc1c[nH]c2ccccc12)C(=O)N[C@H](Cc1ccccc1)C(=O)N[C@@H](CCCCN)C(N)=O (Haic-[dTrp(2-Me)][dK]W[dF]K-NH2)
Solution: 5.95

Problem: Consider the compound C[C@H](NC(=O)[C@@H](Cc1ccccc1)NC(=O)[C@H](Cc1c[nH]c2ccccc12)NC(=O)NNC(=O)[C@@H](Cc1c[nH]c2ccccc12)NC(=O)[C@@H](N)Cc1cnc[nH]1)C(N)=O (H-H[dW][azaGly]W[dF]A-NH2) and give its recorded pIC50.
Solution: < 5.00

Data provenance: ChEMBL document CHEMBL2163252
